Measured values drawn from paper PMC12652692 for this set.

- Tested on: SNB-19
- assay-details: NCI60 one-dose screen
- Type: cell-based
- condition-notes: Homo sapiens; SNB-19, 10 μM; read-out: Growth percent
The entries below are paired with their reported activity at 10 µM.

Sample answers from the record:
O=c1cc(-c2ccccc2)oc2cc(OCCCC[P+](c3ccccc3)(c3ccccc3)c3ccccn3)cc(O)c12 [3h]; -91.6%
Cc1ccccc1[P+](CCCCOc1cc(O)c2c(=O)cc(-c3ccccc3)oc2c1)(c1ccccc1C)c1ccccc1C [3g]; -97.4%
O=c1cc(-c2ccccc2)oc2cc(OCCCC[P+](c3ccccc3)(c3ccccc3)c3ccccc3)cc(O)c12 [3a]; -44.5%
COc1ccc([P+](CCCCOc2cc(O)c3c(=O)cc(-c4ccccc4)oc3c2)(c2ccc(OC)cc2)c2ccc(OC)cc2)cc1 [3c]; -78.9%
O=c1cc(-c2ccccc2)oc2cc(O)cc(O)c12 [compound 2, 5,7-dihydroxyflavone, reference compound]; 86%
O=c1cc(-c2ccccc2)oc2cc(OCCCC[P+](c3ccc(F)cc3)(c3ccc(F)cc3)c3ccc(F)cc3)cc(O)c12 [3d]; -97.4%

Q. Please state recorded activity at 10 µM (tested on SNB-19) of COc1c(C)cc([P+](CCCCOc2cc(O)c3c(=O)cc(-c4ccccc4)oc3c2)(c2cc(C)c(OC)c(C)c2)c2cc(C)c(OC)c(C)c2)cc1C [3f]
A. -76.8%

Q. // next record Cc1ccc([P+](CCCCOc2cc(O)c3c(=O)cc(-c4ccccc4)oc3c2)(c2ccc(C)cc2)c2ccc(C)cc2)cc1 [3b]
A. -96.1%

Q. Try the compound O=c1cc(-c2ccccc2)oc2cc(OCCCC[P+](C3CCCCC3)(C3CCCCC3)C3CCCCC3)cc(O)c12 [3e]
A. -87.6%
